read-out: Matrix Metallopeptidase 1 (MMP1), MMP1 (gene 4312); experiment: BSK_BE3C_MMP1: BioMAP Diversity Plus: BE3C Assay for Matrix Metallopeptidase 1 (MMP1) Biomarker Activity (AID 2283024); details: primary human bronchial epithelial cells; actives raise or lower the signal
Activity calls are given as the source filed them. How the source made its calls: active means hit-call score of the fitted dose curve at least 0.9, where 1 is the maximum; inactive means score below 0.9.
Classes used: 1 (yes) (active), 0 (no) (inactive)

compound | category
COC(=O)c1ccc(O)cc1 | 0 (no)
Cc1ccc2ncccc2c1 | 0 (no)
Cc1ccc(C)c(C)c1 | 0 (no)
NCCO | 0 (no)
COc1ccc(C)cc1N | 0 (no)
CCCCCCOCCO | 0 (no)
CCOc1ccc2c(c1)C(C)=CC(C)(C)N2 | 0 (no)
Cc1ccc(Cl)cc1 | 0 (no)
CC(=O)Oc1ccccc1C(=O)O | 0 (no)
CC=Cc1ccc(O)c(OC)c1 | 0 (no)
COc1cc(S(=O)(=O)O)c(C)cc1N=Nc1c(O)ccc2cc(S(=O)(=O)O)ccc12 | 0 (no)
Cc1nc(-c2ccc3c(c2)CCN(CCC2CCC(NC(=O)/C=C/c4ccc(F)cc4)CC2)CC3)no1 (centres undefined) | 0 (no)
Cc1ccc(C)c(O)c1C | 0 (no)
COCCOCCOC | 0 (no)
CN1CCN(Cc2cc(-c3ccc4[nH]c(=O)oc4c3)co2)[C@@H](c2ccc(F)cc2)C1 | 0 (no)
Nc1ccc(S(=O)(=O)c2ccc(N)cc2)cc1 | 0 (no)
O=C(OCCCCCOC(=O)c1ccccc1)c1ccccc1 | 0 (no)
CC1(C)CC(N=C=O)CC(C)(CN=C=O)C1 (centres undefined) | 0 (no)
CC1(C)NC(=O)NC1=O | 0 (no)
CCCCCCCCCCCCCCCCCC(=O)O | 0 (no)
CC(C)(C)c1cc(O)c(C(C)(C)C)cc1O | 0 (no)
O=C(O)Cc1ccccc1Nc1c(Cl)cccc1Cl | 0 (no)
FC(F)(F)C(F)(F)C(F)(F)C(F)(F)C(F)(F)C(F)(F)CCI | 0 (no)
O=[N+]([O-])C(CO)(CO)CO | 0 (no)
Cc1cc(NC(=O)C(=O)O)cc(C)c1Oc1ccc(O)c2c1CCC2 | 0 (no)
CCCCCCCCCCCCCO | 1 (yes)
COc1cc(C=O)ccc1O | 0 (no)
Cc1c(C(=O)O)c(O)cc2c1C(=O)c1c(O)c([C@@H]3O[C@H](CO)[C@@H](O)[C@H](O)[C@H]3O)c(O)c(O)c1C2=O | 0 (no)
OC[C@@H](O)[C@@H](O)[C@H](O)[C@H](O)CO | 0 (no)
COc1ccc(S(=O)(=O)N2C(=O)[C@@](c3ccccc3OC)(N3C[C@H](O)C[C@H]3C(=O)N(C)C)c3cc(Cl)ccc32)c(OC)c1 | 0 (no)
NS(=O)(=O)c1cc2c(cc1Cl)NCNS2(=O)=O | 0 (no)
O=C(O)CCCCC(=O)O | 0 (no)
C[Si]1(C)O[Si](C)(C)O[Si](C)(C)O[Si](C)(C)O1 | 0 (no)
CCNc1cccc(C)c1 | 0 (no)
CN1CCCC1=O | 0 (no)
CCCCCC(=O)O | 0 (no)
CCCc1cc(=O)[nH]c(=S)[nH]1 | 0 (no)
Cc1oc(-c2ccccc2)nc1CCOc1cccc2c1ccn2CCC(=O)O | 0 (no)
Cc1cccc(C)c1O | 0 (no)
CCCCCCCCCCC | 0 (no)
Cc1ccc(C(C)C)c(O)c1 | 0 (no)
Nc1ccc2c(c1)C(=O)c1ccccc1C2=O | 0 (no)
Nc1nc(N)c2nc(CNc3ccc(C(=O)N[C@@H](CCC(=O)O)C(=O)O)cc3)cnc2n1 | 0 (no)
Oc1ccc2c(c1)OC[C@@H](N1CCC(O)(c3ccc(F)cc3)CC1)[C@H]2O | 0 (no)
Cc1ccc(N(C)C)cc1 | 0 (no)
CC(C)c1ccc(C(=O)N=C(N)N)cc1S(C)(=O)=O | 0 (no)
CC(=O)OCCOCCOCCOC(C)=O | 0 (no)
O=c1[nH]cc(F)c(=O)[nH]1 | 0 (no)
CC(=O)C(C)=CC1C(C)=CCCC1(C)C (centres undefined) | 0 (no)
CCc1c(C(=O)NN2CCCCC2)nn(-c2ccc(Cl)cc2Cl)c1-c1ccc(Br)cc1 | 0 (no)
Cc1nc(C)nc(N2C[C@@H](C)N(c3ccnc([C@@H](C)O)n3)[C@@H](C)C2)n1 | 0 (no)
c1cc(-c2ccncc2)ccn1 | 0 (no)
CCCCOC(=O)CCCCCCCCC(=O)OCCCC | 0 (no)
COCCOC[C@H](CC1(C(=O)NC2CCC(C(=O)O)CC2)CCCC1)C(=O)Oc1ccc2c(c1)CCC2 (some centres undefined) | 0 (no)

====

assay: ACEA_ER_AUC_viability: ACEA Biosciences xCELLigence Real-Time Cell Analysis on Estrogen Receptor Agonism for Viability (AID 2283782);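 further: continuous compound exposure with impedance area under curve over 80 h; hit means loss of impedance signal meaning reduced cell growth or viability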
Results filed as inconclusive are left out. Activity calls are given as the source filed them. How the source made its calls: active means hit-call score of the fitted dose curve at least 0.9, where 1 is the maximum; inconclusive means response in the unintended direction; inactive means score below 0.9.
Classes used: yes (1) (active), no (0) (inactive)

compound | category
Cc1nc(-c2ccc3c(c2)CCN(CCC2CCC(NC(=O)/C=C/c4ccc(F)cc4)CC2)CC3)no1 (centres undefined) | no (0)
Cc1ccc(Cl)cc1 | no (0)
Cc1cc(=O)[nH]c(=S)[nH]1 | no (0)
Nc1nc(N)c2nc(CNc3ccc(C(=O)N[C@@H](CCC(=O)O)C(=O)O)cc3)cnc2n1 | yes (1)

====

read-out: CD69, CD69 (gene 969); assay: BSK_SAg_CD69: BioMAP Diversity Plus: SAg Assay for CD69 Biomarker Activity (AID 2283089); conditions: primary human HUVEC with PBMC; actives raise or lower the signal
Activity calls are given as the source filed them. The calls were made as follows: active = hit-call score of the fitted dose curve at least 0.9, where 1 is the maximum; inactive = score below 0.9.
Classes used: TRUE = active, FALSE = inactive

smiles.string | category
COc1ccc(S(=O)(=O)N2C(=O)[C@@](c3ccccc3OC)(N3C[C@H](O)C[C@H]3C(=O)N(C)C)c3cc(Cl)ccc32)c(OC)c1 | TRUE
Cc1ccc(C(C)C)c(O)c1 | FALSE
CCOc1ccc2c(c1)C(C)=CC(C)(C)N2 | FALSE
CNCc1cc(F)ccc1Oc1ccc(Cl)c(Cl)c1 | TRUE
Nc1nc(N)c2nc(CNc3ccc(C(=O)N[C@@H](CCC(=O)O)C(=O)O)cc3)cnc2n1 | FALSE
COc1ccc2c(c1)c(CC(=O)O)c(C)n2C(=O)c1ccc(Cl)cc1 | FALSE
CCCCCCCCCCCCCO | FALSE
C[Si]1(C)O[Si](C)(C)O[Si](C)(C)O[Si](C)(C)O1 | FALSE
NS(=O)(=O)c1cc2c(cc1Cl)NCNS2(=O)=O | FALSE
C1CCC(SSC2CCCCC2)CC1 | TRUE
CC(C)c1ccc(C(=O)N=C(N)N)cc1S(C)(=O)=O | FALSE
C=CCOC(=O)c1ccccc1C(=O)OCC=C | FALSE
Cc1ccc(C)c(C)c1 | FALSE
Cc1oc(-c2ccccc2)nc1CCOc1cccc2c1ccn2CCC(=O)O | FALSE
CCCCCCCCCCCC(=O)OC | FALSE
COc1cc(S(=O)(=O)O)c(C)cc1N=Nc1c(O)ccc2cc(S(=O)(=O)O)ccc12 | FALSE
CCCc1cc(=O)[nH]c(=S)[nH]1 | FALSE
OC[C@@H](O)[C@@H](O)[C@H](O)[C@H](O)CO | FALSE
CC(=O)Oc1ccccc1C(=O)O | FALSE
CC(=O)OC/C=C(\C)CCC=C(C)C | FALSE
O=[N+]([O-])C(CO)(CO)CO | FALSE
CCNc1cccc(C)c1 | FALSE
Cc1nc(C)nc(N2C[C@@H](C)N(c3ccnc([C@@H](C)O)n3)[C@@H](C)C2)n1 | FALSE
Oc1ccc2ccccc2c1N=Nc1ccccc1 | FALSE
CNC(=O)[C@H]1O[C@@H](n2cnc3c(NCc4cc(Cl)ccc4OCc4cc(C)no4)ncnc32)[C@H](O)[C@@H]1N | FALSE

====

target: Muscarinic acetylcholine receptor M5 (Homo sapiens) (UniProt P08912); experiment: NVS_GPCR_hM5: NovaScreen (NVS) G Protein-Coupled Receptor Assay for human Muscarinic, M5 Receptor (AID 2283275)
Sequence (P08912 whole entry, looked up): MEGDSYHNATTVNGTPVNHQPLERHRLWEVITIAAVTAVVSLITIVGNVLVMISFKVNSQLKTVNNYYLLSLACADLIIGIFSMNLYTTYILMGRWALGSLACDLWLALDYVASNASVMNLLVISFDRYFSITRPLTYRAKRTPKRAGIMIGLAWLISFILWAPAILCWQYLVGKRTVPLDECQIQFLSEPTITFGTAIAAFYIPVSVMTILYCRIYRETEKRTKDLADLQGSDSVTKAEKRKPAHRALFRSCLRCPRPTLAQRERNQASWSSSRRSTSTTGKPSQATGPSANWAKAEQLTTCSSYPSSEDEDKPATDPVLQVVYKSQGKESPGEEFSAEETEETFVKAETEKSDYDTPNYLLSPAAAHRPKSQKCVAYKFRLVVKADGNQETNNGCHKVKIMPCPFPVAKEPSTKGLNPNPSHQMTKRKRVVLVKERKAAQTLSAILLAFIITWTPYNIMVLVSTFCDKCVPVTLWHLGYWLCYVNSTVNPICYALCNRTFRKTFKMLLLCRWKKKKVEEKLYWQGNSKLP
Activity calls are given as the source filed them. Rule for the calls: active = hit-call score of the fitted dose curve at least 0.9, where 1 is the maximum; inconclusive = response in the unintended direction; inactive = score below 0.9.
Possible outcomes: t for active, f for inactive

compound | category
Cc1nc(-c2ccc3c(c2)CCN(CCC2CCC(NC(=O)/C=C/c4ccc(F)cc4)CC2)CC3)no1 (centres undefined) | f
CN1CCN(Cc2cc(-c3ccc4[nH]c(=O)oc4c3)co2)[C@@H](c2ccc(F)cc2)C1 | t
Oc1ccc2c(c1)OC[C@@H](N1CCC(O)(c3ccc(F)cc3)CC1)[C@H]2O | t
CCCCC(CC)COC(=O)CC(C(=O)OCC(CC)CCCC)S(=O)(=O)O (centres undefined) | t
